Measured normalized growth accompanies every entry in the list below.
# assay-name: chemical genetic growth profiling, strain panel (AID 1159580);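 also: tested at 20 µM; growth read once vehicle control cultures reached saturation at 30 °C; 1 = growth at the plate median or of vehicle wells; lower values mean less growth of the strain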
# experimental-setup: S. cerevisiae deletion strains, growth OD, locus YOR119C, strain RIO1, hits give low values
Out of some 5,500 compounds screened, about 2,000 (36%) were called active. About 18% were inconclusive and are not listed. Some of the results follow.
Please respond with just the number, no unit label.

The cases that follow already have their normalized growth on record.
# line-notation, recorded-endpoint, quantitative-readout
data = [
    ("CC1(C)C/C(=N/Nc2ccc(C(F)(F)F)cc2)c2cc(C(C)(C)C)c(O)c(O)c2O1", "normalized growth", 0.534),
    ("CN(C)/C=C/C(=O)c1ccc(C#Cc2ccccc2)cc1", "normalized growth", 1.04),
    ("Cc1nc(C(F)(F)F)c(C(=O)O/N=C(/N)c2ccc(Cl)cc2)s1", "normalized growth", 0.983),
    ("O=C(Nc1cccc(C(F)(F)F)c1)Oc1ccc(F)cc1Cl", "normalized growth", 1.05),
]

So what does the record say about normalized growth for `COc1cc(Cl)c(NS(=O)(=O)c2cc(Br)c(Br)s2)c(OC)c1` ?
0.918

So what does the record say about normalized growth for `Cc1onc(-c2ccccc2Cl)c1-c1nc2ccccc2c(=O)o1` ?
0.983
